# PROTOCOL_TEXT: chemical genetic growth profiling, strain panel (AID 1159580);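 further: tested at 20 µM; growth read once vehicle control cultures reached saturation at 30 °C; 1 = growth at the plate median or of vehicle wells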
# CONDITION_DESCRIPTION: S. cerevisiae deletion strains, growth OD, locus YOR070C, strain gyp1
Screen size: about 5,500 compounds; about 2,000 (36%) were called active. Roughly 18% stayed inconclusive and do not appear here. No stated cut-off is given here; in the data, active means normalized growth mostly below about 0.91 (no sharp cut-off); inconclusive means no clear call, values can overlap the other calls; inactive means mostly above about 0.92. This is one part of the list.
Can you answer with just one of these options? active, inactive

See these solved cases before continuing.
[
  {
    "COMPOUND": "O=C(O)COc1ccc(Cl)cc1Cl",
    "CLASS_LABEL": "inactive"
  },
  {
    "COMPOUND": "COC1C=CC23c4cc5c(cc4CN(CC2O)[C@@H]3C1)OCO5 (some centres not stated)",
    "CLASS_LABEL": "inactive"
  },
  {
    "COMPOUND": "O=C(O)C(O)C(O)C(=O)O (configuration not stated)",
    "CLASS_LABEL": "inactive"
  },
  {
    "COMPOUND": "C[C@@H]1CC2C3CCC4=CC(=O)C=C[C@]4(C)[C@@]3(F)[C@@H](O)C[C@]2(C)[C@@]1(O)C(=O)CO (some centres not stated)",
    "CLASS_LABEL": "inactive"
  }
]

Request: Write down the call the test reported for this compound. Item: O=C(O)[C@@H](S)[C@@H](S)C(=O)O
Result: inactive

Request: What outcome does the record of this test show for CC(C)(S)[C@@H](N)C(=O)O ?
Result: inactive

---

# PROTOCOL_TEXT: chemical genetic growth profiling, strain panel (AID 1159580)
# CONDITION_DESCRIPTION: S. cerevisiae deletion strains, growth OD, locus YKR001C, strain vps1, stronger effect = lower value
Screen size: about 5,500 compounds; about 2,000 (36%) were called active. Another 18% or so got no clear call; they are omitted. Some of the results follow.
REPORTED_PROPERTY: normalized growth

# example entries with known answers
[
  {
    "MOLECULE": "O=C(O)C1CCCNC1 (configuration not stated)",
    "REPORTED_PROPERTY": "normalized growth",
    "RESULT": "1.01 (inactive)"
  },
  {
    "MOLECULE": "O=C(O)COc1ccc(Cl)cc1Cl",
    "REPORTED_PROPERTY": "normalized growth",
    "RESULT": "1.04 (inactive)"
  },
  {
    "MOLECULE": "CC(C)=CC1C(C(=O)OCc2cccc(Oc3ccccc3)c2)C1(C)C (configuration not stated)",
    "REPORTED_PROPERTY": "normalized growth",
    "RESULT": "0.992 (inactive)"
  },
  {
    "MOLECULE": "COC1C=CC23c4cc5c(cc4CN(CC2O)[C@@H]3C1)OCO5 (some centres not stated)",
    "REPORTED_PROPERTY": "normalized growth",
    "RESULT": "0.978 (inactive)"
  },
  {
    "MOLECULE": "O=NN(CCCl)C(=O)NCCCl",
    "REPORTED_PROPERTY": "normalized growth",
    "RESULT": "0.904 (inactive)"
  },
  {
    "MOLECULE": "C[C@]12CCC3C(CC[C@H]4C[C@H](O)CC[C@]34C)C1CC[C@@H]2O (some centres not stated)",
    "REPORTED_PROPERTY": "normalized growth",
    "RESULT": "0.83 (active)"
  },
  {
    "MOLECULE": "CC(=O)C1CCC2C3CCC4C[C@H](O)CCC4(C)C3C[C@H](O)C12C (some centres not stated)",
    "REPORTED_PROPERTY": "normalized growth",
    "RESULT": "1.04 (inactive)"
  },
  {
    "MOLECULE": "CC(=O)C1CC[C@H]2C3CC[C@H]4C[C@H](O)CC[C@]4(C)C3CC[C@]12C (some centres not stated)",
    "REPORTED_PROPERTY": "normalized growth",
    "RESULT": "1.02 (inactive)"
  }
]

// sample CC1CCC(NC(=O)N(CCCl)N=O)CC1 (configuration not stated) , its normalized growth was 0.841 (active)

The molecule identified as C[C@]12CCC3C(CC[C@H]4C[C@@H](O)CC[C@]34C)C1CC[C@@H]2O (some centres not stated) registered its normalized growth at 0.964 (inactive)

The molecule COC(=O)/C(C)=C\CC12OC(C)(C)C3CC(C=C4C(=O)c5c(OC)c6c(c(CC=C(C)C)c5OC431)OC(C)(CCC=C(C)C)C=C6)C2=O (configuration not stated) showed normalized growth equal to 0.97 (inactive)

The molecule listed as CCCCCCCCCCCC(=O)OCC(COP(=O)(O)OCC(O)COP(=O)(O)OCC(COC(=O)CCCCCCCCCCC)OC(=O)CCCCCCCCCCC)OC(=O)CCCCCCCCCCC (configuration not stated) has a reported normalized growth of 0.986 (inactive)

---

A collection of molecules and their measured normalized growth
# PROTOCOL_TEXT: chemical genetic growth profiling, strain panel (AID 1159580);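 further: tested at 20 µM; growth read once vehicle control cultures reached saturation at 30 °C; 1 = growth at the plate median or of vehicle wells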
# CONDITION_DESCRIPTION: S. cerevisiae deletion strains, growth OD, locus YGL253W, strain hxk2, stronger effect = lower value
The campaign covered roughly 5,500 compounds. About 2,000 (36%) were called active. Another 18% or so got no clear call; they are omitted. This is one part of the list.
I'd appreciate a reply containing only the number, no unit.

[
  {
    "MOLECULE": "CC12CCCCC1(Br)[N+](=O)N2[O-] (centres undefined)",
    "REPORTED_PROPERTY": "normalized growth",
    "NUMBER": 0.989
  },
  {
    "MOLECULE": "NCC[C@@H](O)C(=O)N[C@@H]1C[C@H](N)[C@@H](O[C@H]2O[C@H](CN)[C@@H](O)[C@H](O)[C@H]2O)[C@H](O)[C@H]1O[C@H]1O[C@H](CO)[C@@H](O)[C@H](N)C1O (some centres undefined)",
    "REPORTED_PROPERTY": "normalized growth",
    "NUMBER": 1.02
  },
  {
    "MOLECULE": "Clc1ccc(CSC(Cn2ccnc2)c2ccc(Cl)cc2Cl)cc1 (centres undefined)",
    "REPORTED_PROPERTY": "normalized growth",
    "NUMBER": 0.0562
  },
  {
    "MOLECULE": "COc1cc(NS(C)(=O)=O)ccc1Cc1c2ccccc2nc2ccccc12",
    "REPORTED_PROPERTY": "normalized growth",
    "NUMBER": 0.996
  },
  {
    "MOLECULE": "Clc1ccc(CO/N=C(/Cn2ccnc2)c2ccc(Cl)cc2Cl)c(Cl)c1",
    "REPORTED_PROPERTY": "normalized growth",
    "NUMBER": 0.0581
  },
  {
    "MOLECULE": "C=C1C(=O)[C@]23[C@H](O)[C@H]1CC[C@H]2[C@@]12CO[C@]3(O)[C@H](O)[C@@H]1C(C)(C)CC[C@@H]2O",
    "REPORTED_PROPERTY": "normalized growth",
    "NUMBER": 1.02
  }
]

// field: normalized growth; key: Clc1ccc(COC(Cn2ccnc2)c2ccc(Cl)cc2Cl)cc1 (centres undefined) ; value = 0.0531

The molecule Fc1ccc([C@@H]2CCNC[C@H]2COc2ccc3c(c2)OCO3)cc1 showed normalized growth equal to 0.993

Query Clc1ccc(COC(Cn2ccnc2)c2ccc(Cl)cc2Cl)c(Cl)c1 (centres undefined) yields normalized growth of 0.0558

---

# PROTOCOL_TEXT: chemical genetic growth profiling, strain panel (AID 1159580);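 further: tested at 20 µM; growth read once vehicle control cultures reached saturation at 30 °C; 1 = growth at the plate median or of vehicle wells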
# CONDITION_DESCRIPTION: S. cerevisiae deletion strains, growth OD, locus YIL066C, strain RNR3, stronger effect = lower value
Out of some 5,500 compounds screened, about 2,000 (36%) were called active. Inconclusive results (about 18%) are left out. This is one part of the list.
API: label(entry) gives MET if the entry's normalized growth is strictly smaller than 1; on equality or larger values it gives NOT MET.

[
  {
    "MOLECULE": "CC(=O)C1CCC2C3CCC4C[C@H](O)CCC4(C)C3C[C@H](O)C12C (stereo not given in full)",
    "CLASS_LABEL": "NOT MET"
  }
]

# evaluate next
Request: Report whether reported normalized growth is lower than 1 (strictly) for C[C@]12CCC3C(CC[C@H]4C[C@@H](O)CC[C@]34C)C1CC[C@@H]2O (stereo not given in full)
Result: MET

---

# PROTOCOL_TEXT: chemical genetic growth profiling, strain panel (AID 1159580);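 further: tested at 20 µM; growth read once vehicle control cultures reached saturation at 30 °C; 1 = growth at the plate median or of vehicle wells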
# CONDITION_DESCRIPTION: S. cerevisiae deletion strains, growth OD, locus YER167W, strain BCK2, stronger effect = lower value
About 2,000 (36%) of roughly 5,500 compounds were called active. Inconclusive results (about 18%) are left out. The list shows a part of the results.
Recorded normalized growth for the following compounds
Just the number, please, no unit attached.

For record CC(=O)O[C@H]1C[C@@H](OC(C)=O)C(C)(C)C2C[C@@H](O)[C@]3(C)C(CC[C@@]4(C)[C@H](c5ccoc5)OC(=O)[C@H]5O[C@]543)[C@]21C (some centres not stated) the listed normalized growth is 0.995

Value of normalized growth reported for the compound NCCCCC(=O)O is 1.03

Field normalized growth (entry CN=C(N)NCCCC(N)C(=O)O (configuration not stated) ) reads 1.05
